test system: primary human hepatic stellate cells (donor 1); test: scaled lipid accumulation score (0 = DMSO-like, 1 = nortriptyline-like); higher = stronger HSC inactivation (lipid re-accumulation), active = hit call of the paper; details: library stock concentration: 10 mM; 48 h
Hit rate of the full screen: of about 5,800 compounds, about 620 (11%) showed activity.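 The calls were made as follows: active = score above a cut-off or among the top three wells of a plate; in these data no inactive exceeds 0.85.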 The entries come from a sample that favours actives as a whole.
Form entry, call: pick from 1 = active, 0 = inactive

Look over these answered cases.
O=[N+]([O-])c1ccc2c(c1)S(=O)(=O)C=C2 = 0
Cc1ccc(Nc2c(F)cccc2Cl)c(CC(=O)O)c1 [Lumiracoxib] = 0
CCCC(CCC)C(=O)O[C@H]1C[C@H]2CC[C@@H](C1)[N+]2(C)C [Anisotropine methyl bromide] = 0
O=c1onc2cnc3ccccc3n12 = 1

How was COc1ccc2c(c1OC)C(=O)O[C@@H]2[C@H]1c2c(cc3c(c2OC)OCO3)CCN1C [Noscapine hydrchloride] classified in this test?
0

Assay outcome for Cc1ccc(Nc2c(F)cccc2Cl)c(CC(=O)O)c1 : what was it?
0

====

test system: primary human hepatic stellate cells (donor 1); experiment: scaled lipid accumulation score (0 = DMSO-like, 1 = nortriptyline-like); higher = stronger HSC inactivation (lipid re-accumulation), active = hit call of the paper; conditions: library stock concentration: 10 mM; 48 h
Out of some 5,800 compounds screened, about 620 (11%) showed activity.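 The calls were made as follows: active = score above a cut-off or among the top three wells of a plate; in these data no inactive exceeds 0.85.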 The sample as a whole holds a higher share of actives than the screen did.
A correct response names exactly one class from active, inactive

OC1CCC(Nc2ncc3nc(Nc4c(F)cc(F)cc4F)n([C@@H]4CCOC4)c3n2)CC1 (some centres undefined) = inactive
Cl.N#Cc1ccc2[nH]cc(CCCCN3CCN(c4ccc5oc(C(N)=O)cc5c4)CC3)c2c1 [Vilazodone HCl] = active
COC1=C2C[C@@H](C)C[C@H](OC)[C@H](O)[C@@H](C)/C=C(\C)[C@H](OC(N)=O)[C@@H](OC)/C=C\C=C(/C)C(=O)NC(=CC1=O)C2=O = inactive

# fetch the recorded call for COc1ccccc1CNC1CCCNC1c1ccccc1 (centres undefined) here
inactive

Please state the recorded outcome for this compound: O=c1[nH]c(C2CCCN2)nc2c1oc1ccc(Cl)cc12 (centres undefined)
inactive

Record lookup: outcome of this test for CCCc1c(OCCCCc2nnn[nH]2)ccc(C(C)=O)c1O ?
inactive

Would you mind telling me which call this test gave CC(C)=CCC1=C(O)C(=O)c2ccccc2C1=O ?
inactive

GET /call?item= Cc1c(C(=O)N(C)C2CCCCC2)sc2nc3ccc(N)cc3n12 returns the recorded outcome of this test.
inactive

// param item: CC1CNCCN1S(=O)(=O)c1cccc2cnccc12 (centres undefined) ; yields the recorded call
inactive

====

Measured scaled lipid accumulation score, listed per entry for reference.
system: primary human hepatic stellate cells (donor 1); test: scaled lipid accumulation score (0 = DMSO-like, 1 = nortriptyline-like); higher = stronger HSC inactivation (lipid re-accumulation), active = hit call of the paper; conditions: library stock concentration: 400 uM; 48 h
The whole screen tested about 5,800 compounds, of which about 620 (11%) showed activity. The list comes from a sample in which actives are over-represented; it also holds close analogues and randomly drawn compounds.

Here's what some known entries look like.
Cc1nc(N)sc1-c1ccnc(Nc2ccc(N3CCOCC3)cc2)n1 = ≤ -0.005 (inactive)
C[C@]1(O)C[C@@H](c2nc(-c3ccc4ccc(-c5ccccc5)nc4c3)c3c(N)nccn32)C1 = ≤ -0.009 (inactive)
C[C@@H](N)c1ccc(C(=O)Nc2ccnc3[nH]ccc23)cc1 = ≤ -0.009 (inactive)

scaled lipid accumulation score reading for Cc1ncc(-c2ccnc(Nc3ccc(S(C)(=O)=O)cc3)n2)n1C(C)C : 0.763 (inactive)

The recorded scaled lipid accumulation score for entry Cc1cnc(-c2cnc(NCCNc3ccc(C#N)cn3)nc2-c2ccc(Cl)cc2Cl)[nH]1 equals 0.005 (inactive)

====

test system: primary human hepatic stellate cells (donor 1); assay: scaled lipid accumulation score (0 = DMSO-like, 1 = nortriptyline-like); higher = stronger HSC inactivation (lipid re-accumulation), active = hit call of the paper; conditions: library stock concentration: 80 uM; 48 h
The whole screen tested about 5,800 compounds, of which about 620 (11%) showed activity. For the sample, actives were picked, then their nearest neighbours and some compounds at random.
Overview of recorded scaled lipid accumulation score for various molecules

Solved cases below.
C[S+]([O-])c1ccc(-c2nc(-c3ccc(F)cc3)c(-c3ccncc3)[nH]2)cc1 (stereo not given) = 0.004 (inactive)
O=C(c1ccc(/C=C/c2n[nH]c3ccccc23)cc1)N1CCNCC1 = ≤ -0.016 (inactive)
COc1cc2ncnc(Nc3ccc(F)c(Cl)c3)c2cc1OCCCN1CCOCC1 = ≤ -0.003 (inactive)
S=C(NCc1ccc2c(c1)OCO2)N1CCN(c2ncnc3c2oc2ccccc23)CC1 = 0.069 (inactive)
Cc1ccc(C(=O)Nc2cccc(C(F)(F)F)c2)cc1Nc1nc(-c2cccnc2)nc2c1cnn2C = ≤ -0.016 (inactive)
O=C(O)CCNc1cc(N2CCc3ccccc3CC2)nc(-c2cccnc2)n1 = ≤ 0 (inactive)
C=CC(=O)Nc1cc2c(Nc3ccc(F)c(Cl)c3)ncnc2cc1OCCCN1CCOCC1 = 0.045 (inactive)
O=C1NC(=O)/C(=C\c2cccc(C(F)(F)F)c2)S1 [PIM12 kinase inhibitor V] = ≤ -0.001 (inactive)
CCNC(=O)c1noc(-c2cc(C(C)C)c(O)cc2O)c1-c1ccc(CN2CCOCC2)cc1 = 0.702 (inactive)
CCN1CCN(Cc2ccc(Nc3ncc(F)c(-c4cc(F)c5nc(C)n(C(C)C)c5c4)n3)nc2)CC1 [Abemaciclib] = 0.332 (inactive)

The molecule listed as Cc1ccc2c(c1)C(=O)C1(O)CCN(c3ccccc3)C1=N2 (single isomer, unassigned; (-)) [(-)-Blebbistatin] has a reported scaled lipid accumulation score of ≤ -0.001 (inactive)

Kindly note the recorded scaled lipid accumulation score for CNC(=O)c1cc(Oc2ccc(NC(=O)Nc3ccc(Cl)c(C(F)(F)F)c3)c(F)c2)ccn1 [Regorafenib] , which is ≤ -0.016 (inactive)

Note to self: scaled lipid accumulation score recorded for Cn1c(Nc2ccc(C(F)(F)F)cc2)nc2cc(Oc3ccnc(-c4ncc(C(F)(F)F)[nH]4)c3)ccc21 was ≤ -0.001 (inactive)

# molecule O=S(=O)(NCCNC/C=C/c1ccc(Br)cc1)c1cccc2cnccc12 ; its scaled lipid accumulation score = ≤ 0 (inactive)

The recorded scaled lipid accumulation score for entry Cc1ccc(NC(=O)c2ccc(CN3CCN(C)CC3)cc2)cc1Nc1nc(-c2cccnc2)cs1 [Masitinib] equals ≤ -0.009 (inactive)

====

test system: primary human hepatic stellate cells (donor 1); assay: scaled lipid accumulation score (0 = DMSO-like, 1 = nortriptyline-like); higher = stronger HSC inactivation (lipid re-accumulation), active = hit call of the paper; conditions: library stock concentration: 10 mM; 48 h
Structures can show the parent of a compound that is named as a salt. Out of some 5,800 compounds screened, about 620 (11%) showed activity.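 How the source made its calls: active = score above a cut-off or among the top three wells of a plate; in these data no inactive exceeds 0.85.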 The list comes from a sample in which actives are over-represented; it also holds close analogues and randomly drawn compounds.
Respond using exactly one of the listed classes: Yes for active, No for inactive

Record excerpt, results attached:
Cc1ccc2c(c1)C(=O)C1(O)CCN(c3ccccc3)C1=N2 (stereo not drawn) = No
CCC(NC(C)C)C(O)c1ccc(O)c2[nH]c(=O)ccc12 (stereo not drawn) [Procaterol hydrochloride] = No
COc1cc(Nc2c(C#N)cnc3cc(OCCCN4CCN(C)CC4)c(OC)cc23)c(Cl)cc1Cl [Bosutinib] = No

What call does the record list for CCN1CCC(n2cc(CNc3cc(Cl)c4ncc(C#N)c(Nc5ccc(F)c(Cl)c5)c4c3)nn2)CC1 ?
Yes

Outcome logged for COc1cc(CNC(=O)CCCC/C=C/C(C)C)ccc1O [E-capsaicin] in this assay:
No

====

test system: primary human hepatic stellate cells (donor 1); assay: scaled lipid accumulation score (0 = DMSO-like, 1 = nortriptyline-like); higher = stronger HSC inactivation (lipid re-accumulation), active = hit call of the paper; details: library stock concentration: 1 mM; 48 h
Counter-ions that a name gives are not always drawn. Hit rate of the full screen: of about 5,800 compounds, about 620 (11%) showed activity. What follows is part of a selection rich in actives, with near analogues and random picks from the rest.
quantityMeasured: scaled lipid accumulation score

# example entries with known answers
CC(CCCO)C1CCC2C3C(O)CC4CC(=O)CCC4(C)C3CC(O)C12C (configuration not stated) = ≤ 0 (inactive)
C[C@H](N)C(=O)CCCCCC(=O)O [KAPA (hydrochloride)] = 0.007 (inactive)
O=C(O)CCC/C=C\C[C@@H]1[C@@H](/C=C/C(F)(F)COc2ccccc2)[C@H](O)C[C@@H]1O [Tafluprost (free acid)] = 0.007 (inactive)
CCCCCC=CC=CC(O)CCCCCCCC(=O)OCC(COC(=O)CCCCCCCC=CC=CC(O)CCCCC)OC(=O)CCCCCCCC=CC=CC(O)CCCCC (configuration not stated) [Hydroxy Linoleins] = 0.061 (inactive)
CCCCC(C)(C)[C@H](O)/C=C/[C@@H]1[C@@H](C/C=C\CCCC(=O)O)[C@@H](O)C[C@H]1O = ≤ 0 (inactive)

Recorded scaled lipid accumulation score (molecule O=C(O)CCCCCC[C@@H]1[C@@H](CC[C@@H](O)CCc2cccc(C(F)(F)F)c2)[C@H](O)C[C@@H]1O ): ≤ 0 (inactive)

The recorded scaled lipid accumulation score for entry O=C(O)CCC/C=C\C[C@@H]1[C@@H](CCC(=O)CCc2ccccc2)[C@H](O)C[C@@H]1O [15-keto Latanoprost (free acid)] equals ≤ 0 (inactive)
